# Test system: NCI-H322M lung
# PROTOCOL_SUMMARY: NCI-60 one-dose screen, 48 h (100 = growth as untreated, 0 = no growth, -100 = all killed)
# ASSAY_SETUP: 10 µM unless noted
This is part of a sample that, as a whole, favours compounds with a hit. Of some 83,000 tested, about 20% had one in any assay.
Classification by growth follows these ranges: low value = under 60%, medium value = from 60% up to 90%, high value = 90% and over

[
  {
    "MOL_SMILES": "COc1ccc(C(=O)/C=C/c2c(C(F)(F)F)nc3ccccn23)cc1OC",
    "CAT": "low value"
  },
  {
    "MOL_SMILES": "CCSC(SCC)c1ccc(Cl)cc1",
    "CAT": "high value"
  },
  {
    "MOL_SMILES": "Cc1ccc(C(=O)c2ccc(CC(=O)N/N=C/c3ccccc3O)n2C)cc1",
    "CAT": "medium value"
  },
  {
    "MOL_SMILES": "O=S(=O)(NCCNc1nccc(-c2c(-c3ccc(F)c(O)c3)nc3occn23)n1)c1ccc(Cl)cc1",
    "CAT": "high value"
  },
  {
    "MOL_SMILES": "Cc1ccc(-c2nc(N3CCCNCC3)c3oc(-c4ccccc4)nc3n2)cc1",
    "CAT": "low value"
  },
  {
    "MOL_SMILES": "CC(C)(C)CC(C)(C)NC(=O)Nc1ncccc1OCc1ccccc1",
    "CAT": "medium value"
  },
  {
    "MOL_SMILES": "CN1CCN(c2cc(Nc3cc(C4CC4)[nH]n3)nc(Nc3ccc(CC(=O)NCc4cccc(F)c4)cc3)n2)CC1",
    "CAT": "low value"
  },
  {
    "MOL_SMILES": "CC(=O)Oc1ccc(C)cc1C",
    "CAT": "high value"
  }
]
